Reference for the values: patent US6875761B2

Here's what we have: Ki numbers for UniProt P14842.
Sequence (P14842 whole entry): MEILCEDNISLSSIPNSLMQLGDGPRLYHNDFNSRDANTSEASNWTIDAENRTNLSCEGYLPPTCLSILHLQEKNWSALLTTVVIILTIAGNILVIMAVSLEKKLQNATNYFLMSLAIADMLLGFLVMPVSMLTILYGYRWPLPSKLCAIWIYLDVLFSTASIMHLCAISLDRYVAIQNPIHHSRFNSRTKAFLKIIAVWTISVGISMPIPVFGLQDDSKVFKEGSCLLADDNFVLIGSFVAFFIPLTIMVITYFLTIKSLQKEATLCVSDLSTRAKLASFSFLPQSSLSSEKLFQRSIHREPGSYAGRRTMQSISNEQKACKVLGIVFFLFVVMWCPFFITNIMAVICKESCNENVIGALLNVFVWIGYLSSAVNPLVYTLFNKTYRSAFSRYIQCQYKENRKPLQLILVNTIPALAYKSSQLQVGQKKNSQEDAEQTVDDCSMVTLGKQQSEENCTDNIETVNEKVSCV
Where a name gives a salt, the structure may show the parent alone.
Only the number, expressed in nM, is required.

INSERT INTO measurements (compound, readout_value) VALUES
  ('CCN1CCN(c2nc(/C=C(\C)c3ccc(N4CCOCC4)cc3)cc3ccccc23)CC1 [Example 206, Oxalate]', 2.59),
  ('CCN1CCN(c2nc(-c3ccnc(OCc4ccccc4)c3)cc3ccccc23)CC1', 88.1);

"CCN1CCN(c2nc(-c3ccc(OCCO)nc3)cc3ccccc23)CC1" tested on UniProt P14842 gave Ki: 6.9

CCCNC(=O)c1ccc(-c2cc3ccsc3c(N3CCN(CC)CC3)n2)cc1 [Example 449, dihydrochloride] tested on UniProt P14842 gave Ki: 43.8

CCN1CCN(c2nc(/C=C/c3ccccc3OC)cc3ccccc23)CC1 [Example 195, Oxalate] tested on UniProt P14842 gave Ki: 37.2

CCN1CCN(c2nc(-c3ccc(C(C)CCO)cc3)cc3ccccc23)CC1 (centres unmarked) [Example 383, Oxalate] tested on UniProt P14842 gave Ki: 3.4

"CCN1CCN(c2nc(-c3ccnc(OC)c3)cc3ccccc23)CC1" tested on UniProt P14842 gave Ki: 10.2

"CCN1CCN(c2nc(-c3ccnc(OCCOC)c3)cc3ccccc23)CC1" tested on UniProt P14842 gave Ki: 26.1
